- System: 1-deoxy-D-xylulose 5-phosphate reductoisomerase (Escherichia coli K-12, UniProt P45568)
- Sequence (P45568 whole entry): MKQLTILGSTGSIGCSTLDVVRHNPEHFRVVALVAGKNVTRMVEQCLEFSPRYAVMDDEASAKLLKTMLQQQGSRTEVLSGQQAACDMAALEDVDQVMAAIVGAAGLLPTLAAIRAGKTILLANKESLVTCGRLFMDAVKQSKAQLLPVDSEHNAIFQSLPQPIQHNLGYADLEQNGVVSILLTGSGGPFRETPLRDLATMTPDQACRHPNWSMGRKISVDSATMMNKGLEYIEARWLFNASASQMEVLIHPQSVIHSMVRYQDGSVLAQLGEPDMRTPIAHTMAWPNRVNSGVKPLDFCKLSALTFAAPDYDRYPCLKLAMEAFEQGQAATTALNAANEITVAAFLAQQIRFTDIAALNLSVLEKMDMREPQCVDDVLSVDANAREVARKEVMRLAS
Experimental Endpoint: pKi
Please express pKi as -log10 of the molar concentration.

Query :: Provide measured pKi on 1-deoxy-D-xylulose 5-phosphate reductoisomerase (Escherichia coli K-12, UniProt P45568) for `O=C(O)CN1C(=O)/C(=C/c2ccc(O)c(O)c2)SC1=S` please.
Result :: 5.11

----------
- System: Malate dehydrogenase (Thermus thermophilus, UniProt P10584)
- Sequence (P10584 whole entry): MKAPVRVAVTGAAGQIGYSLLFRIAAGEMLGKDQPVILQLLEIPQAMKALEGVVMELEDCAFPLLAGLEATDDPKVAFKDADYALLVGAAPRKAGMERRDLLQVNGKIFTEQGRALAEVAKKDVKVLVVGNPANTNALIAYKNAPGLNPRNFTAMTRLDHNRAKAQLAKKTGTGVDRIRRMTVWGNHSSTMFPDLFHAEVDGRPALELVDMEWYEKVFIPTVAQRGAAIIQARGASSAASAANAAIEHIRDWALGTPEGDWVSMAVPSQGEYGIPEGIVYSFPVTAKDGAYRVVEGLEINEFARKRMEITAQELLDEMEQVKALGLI
- Test Details: Inhibition of Thermus flavus MDH pre-incubated for 4 mins before reaction initiation in presence of OAA and NAPH in presence of 0.01% Triton X100 by UV-Vis spectrophotometry
Experimental Endpoint: IC50 (µM)
Report the figure in µM without appending any unit label.

Query :: Specify IC50 for `O=C(O)CN1C(=O)/C(=C/c2ccc(O)c(O)c2)SC1=S` and stop.
Result :: 15
